The reported numbers originate from patent US20130131321A1.

Property: Bevacizumab IgG Bound (%); scope: individual compounds
- ASSAYED SYSTEM: Bevacizumab (Homo sapiens, UniProt P01857)
- Construct: fused on or other part: humanised anti-VEGF-A VH domain N-terminal of the gamma-1 constant region (engineered, no UniProt entry)
- ASSAY EXPLANATION: Microtiter plate chromatography of resins, Bevacizumab whole IgG (bound, yield, selectivity)
- Assay type: binding, humanized
- MEASUREMENT CONDITIONS: fraction of whole IgG Bevacizumab bound to resin
Numbers only; they are read as %.

Check out these entries, answers already filled in.
Problem: # get_value(readout='Bevacizumab IgG Bound (%)', item= COc1ccc(NC(=O)c2cncc(-c3ccccc3)c2)cc1C(=O)NCCCN [Ligand L11] )
Solution: 95

Problem: # get_value(readout='Bevacizumab IgG Bound (%)', item= COc1ccc(NC(=O)c2cn3ccsc3n2)cc1C(=O)NCCOCCOCC(=O)NCCCC[C@H](NC(=O)COCCOCCNC(=O)c1cc(NC(=O)c2cn3ccsc3n2)ccc1OC)C(=O)NCCCN [Ligand L50] )
Solution: 100

More entries:
Problem: # get_value(readout='Bevacizumab IgG Bound (%)', item= COc1ccc(NC(=O)c2nn(C)c3ccccc23)cc1C(=O)NCCOCCOCC(=O)NCCOCCOCC(=O)NCCCN [Ligand L61] )
Solution: 100
